TARGET_OR_TEST_SYSTEM: HiBit-KRAS^G12C (Homo sapiens, UniProt P01116, G12C)
Sequence (P01116 1-186 isoform P01116-2 G12C limits assumed): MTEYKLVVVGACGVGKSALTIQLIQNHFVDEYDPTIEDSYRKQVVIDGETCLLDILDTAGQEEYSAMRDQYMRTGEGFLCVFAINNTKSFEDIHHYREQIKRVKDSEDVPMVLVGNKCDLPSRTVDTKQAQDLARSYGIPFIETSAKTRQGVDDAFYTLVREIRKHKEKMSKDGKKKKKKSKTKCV
TEST: HiBit degradation assay in MiaPaCa-2 HiBit-KRas^G12C cells
Assay type: cell-based
APPLIED_CONDITIONS: read-out: KRas^G12C-HiBiT (MiaPaCa; 0.5% DMSO) IC50; MiaPaCa-2 HiBit-KRas^G12C cells; 0.5% DMSO; 24 hours
List of DC50 values.
METRIC_NAME: DC50

[
  {
    "MOLECULE": "C=CC(=O)N1CCN(c2nc(OCCN3CCC(F)(COCC(=O)N[C@H](C(=O)N4C[C@H](O)C[C@H]4C(=O)N[C@@H](C)c4ccc(-c5scnc5C)cc4)C(C)(C)C)CC3)nc3c(F)c(-c4cc(O)cc5ccccc45)c(Cl)cc23)C[C@@H]1CC#N [Compound 150]",
    "MEASURED": "> 1 µM"
  },
  {
    "MOLECULE": "C=CC(=O)N1CCN(c2nc(OCCN3CCC(C)(COc4cc([C@H](C(=O)N5C[C@H](O)C[C@H]5C(=O)N[C@@H](C)c5ccc(-c6scnc6C)cc5)C(C)C)on4)CC3)nc3c(F)c(-c4cc(O)cc5ccccc45)c(Cl)cc23)C[C@@H]1CC#N [Compound 131]",
    "MEASURED": "0.1 to 1 µM"
  },
  {
    "MOLECULE": "C=CC(=O)N1CCN(c2nc(O[C@H](C)CN3CCC(OCCOCC(=O)N[C@H](C(=O)N4C[C@H](O)C[C@H]4C(=O)N[C@@H](C)c4ccc(-c5scnc5C)cc4)C(C)(C)C)CC3)nc3c(F)c(-c4c(O)cccc4F)c(Cl)cc23)CC1 [Compound 61]",
    "MEASURED": "> 1 µM"
  },
  {
    "MOLECULE": "C=CC(=O)N1CCN(c2nc(OCCN3CCC(COc4cc([C@@H](C(=O)N5C[C@H](O)C[C@H]5C(=O)N[C@@H](C)c5ccc(-c6scnc6C)cc5)C(C)C)on4)CC3)nc3c(F)c(-c4cc(O)cc5ccccc45)c(Cl)cc23)C[C@@H]1CC#N (atropisomer, axis not shown) [Compound 154]",
    "MEASURED": "0.1 to 1 µM"
  },
  {
    "MOLECULE": "C=C(F)C(=O)N1CCN(c2nc(OCCN3CCC(COc4cc([C@@H](C(=O)N5C[C@H](O)C[C@H]5C(=O)N[C@@H](C)c5ccc(-c6scnc6C)cc5)C(C)C)on4)CC3)nc3c(F)c(-c4cc(O)cc5ccccc45)c(Cl)cc23)C[C@@H]1CC#N [Compound 171]",
    "MEASURED": "> 1 µM"
  },
  {
    "MOLECULE": "C=C(F)C(=O)N1CCN(c2nc(OCCN3CCC(COCC(=O)N[C@H](C(=O)N4C[C@H](O)C[C@H]4C(=O)N[C@@H](C)c4ccc(-c5ccnn5C)cc4)C(C)(C)C)CC3)nc3c(F)c(-c4cc(O)cc5ccccc45)c(Cl)cc23)C[C@@H]1CC#N (atropisomer, axis not shown) [Compound 129]",
    "MEASURED": "0.1 to 1 µM"
  },
  {
    "MOLECULE": "C=C(F)C(=O)N1CCN(c2nc(OCCN3CCC(OCCOCC(=O)N[C@H](C(=O)N4C[C@H](O)C[C@H]4C(=O)N[C@@H](C)c4ccc(-c5scnc5C)cc4)C(C)(C)C)CC3)nc3c(F)c(-c4cc(O)cc5ccccc45)c(Cl)cc23)C[C@@H]1CC#N [Compound 170]",
    "MEASURED": "0.1 to 1 µM"
  },
  {
    "MOLECULE": "C=CC(=O)N1CCN(c2nc(OCCN3CCC(C)(COCC(=O)N[C@H](C(=O)N4C[C@H](O)C[C@H]4C(=O)N[C@@H](C)c4ccc(-c5scnc5C)cc4)C(C)(C)C)CC3)nc3c(F)c(-c4cc(O)cc5ccccc45)c(Cl)cc23)C[C@@H]1CC#N [Compound 149]",
    "MEASURED": "0.1 to 1 µM"
  }
]
